tested on: HepG2; assay: Up-regulation of LDL receptor expression in human HepG2 cells at 100 nM by immunoblot analysis; format: functional, cell-based
The source made the active and inactive calls. The calls are words filed in the database; no cut-off is given here.
Possible outcomes: active, inactive

CC(C)c1cc(C(C)C)c(CC(=O)NS(=O)(=O)Oc2c(C(C)C)cccc2C(C)C)c(C(C)C)c1 :: inactive
COc1cccc(C2(CNC(=O)Nc3c(C(C)C)cc(N)cc3C(C)C)CCN(c3ccccc3OCCO)CC2)c1 :: active
COc1cccc(C2(CNC(=O)Nc3c(C(C)C)cc(N)cc3C(C)C)CCN(c3ccccc3OC)CC2)c1 :: active
COc1cccc(N2CCC(CNC(=O)Nc3c(C(C)C)cc(N)cc3C(C)C)(c3cccc(OC)c3)CC2)c1 :: inactive
